The measured values listed here are drawn from ChEMBL document CHEMBL3885861.

- Organism: Rattus norvegicus
- Experiment description: Open TG-GATES - Regimen: Daily Repeat
- Type: toxicity, organism-based, Sprague-Dawley
- Parameters: regimen Daily Repeat, gender Male, age 6 weeks
- Recorded conditions: in vivo, po, 0 mg/kg, […], tissue Blood, route gavage, dose level Control, time 28 day
Below, each entry is listed alongside its reported RBC.
Measurement name: RBC (x10_4/ul)

> print(dat)
                                    molecule  unit.info  endpoint.value
 1  CSc1ccc2c(c1)N(CCC1CCCCN1C)c1ccccc1S2 (stereo not given)   x10_4/ul           769.4
 2  NC(=O)N1c2ccccc2C=Cc2ccccc21 [CARBAMAZEPINE]   x10_4/ul             762
 3  O=C(O)c1cc(/N=N/c2ccc(S(=O)(=O)Nc3ccccn3)cc2)ccc1O   x10_4/ul           775.4
 4                     CC(=O)Oc1ccccc1C(=O)O   x10_4/ul           815.4
 5         NC(=O)N/N=C/c1ccc([N+](=O)[O-])o1   x10_4/ul           767.2
 6  O=C(O)c1cn(C2CC2)c2cc(N3CCNCC3)c(F)cc2c1=O   x10_4/ul           762.2
 7     COc1ccc(Cc2nccc3cc(OC)c(OC)cc23)cc1OC   x10_4/ul             775
 8          C[C@H](CS)C(=O)N1CCC[C@H]1C(=O)O   x10_4/ul           761.8
 9                  Clc1ccccc1CN1CCc2sccc2C1   x10_4/ul           743.4
10          CCc1cc(C(N)=S)ccn1 [ETHIONAMIDE]   x10_4/ul           796.2

###

- Species on record: Rattus norvegicus
- Experiment description: Open TG-GATES - Regimen: Single
- Assay type: toxicity, organism-based, Sprague-Dawley
- Parameters: regimen Single, gender Male, age 6 weeks
- Recorded conditions: in vivo, po, 100 mg/kg, 3 h, tissue Plasma, route gavage, dose level Low
Measurement name: TG (mg/dL)

> print(dat)
                                   compound  measurement.name  endpoint.value
1          CCc1cc(C(N)=S)ccn1 [ETHIONAMIDE]                TG              58
2          C[C@H](CS)C(=O)N1CCC[C@H]1C(=O)O                TG              68
3  O=C(O)c1cn(C2CC2)c2cc(N3CCNCC3)c(F)cc2c1=O                TG            45.6
4  O=C(O)c1cc(/N=N/c2ccc(S(=O)(=O)Nc3ccccn3)cc2)ccc1O                TG            59.4

###

- Organism: Rattus norvegicus
- Experiment description: Open TG-GATES - Regimen: Daily Repeat
- Assay type: toxicity, organism-based, Sprague-Dawley
- Design: regimen Daily Repeat, gender Male, age 6 weeks
- Recorded conditions: in vivo, po, 0 mg/kg, 72 h, tissue Blood, route gavage, dose level Control, time 3 day
Measurement name: MCH (pg)

> print(dat)
                                    compound  endpoint.value
 1  Cn1c(=O)c2[nH]cnc2n(C)c1=O.O [THEOPHYLLINE]            21.2
 2           CCCC(CCC)C(=O)O [VALPROIC ACID]            21.3
 3    Clc1ccccc1CN1CCc2sccc2C1 [TICLOPIDINE]            21.9
 4           CC(=O)Oc1ccccc1C(=O)O [ASPIRIN]            21.2
 5  O=C(O)c1cn(C2CC2)c2cc(N3CCNCC3)c(F)cc2c1=O [CIPROFLOXACIN]            22.2
 6  C[C@H](CS)C(=O)N1CCC[C@H]1C(=O)O [CAPTOPRIL]            21.5
 7  CSc1ccc2c(c1)N(CCC1CCCCN1C)c1ccccc1S2 (centres undefined) [THIORIDAZINE]            21.7
 8  NC(=O)N/N=C/c1ccc([N+](=O)[O-])o1 [NITROFURAZONE]              21
 9          CCc1cc(C(N)=S)ccn1 [ETHIONAMIDE]              22
10  NC(=O)N1c2ccccc2C=Cc2ccccc21 [CARBAMAZEPINE]              21
11  COc1ccc2c(c1)c(CC(=O)O)c(C)n2C(=O)c1ccc(Cl)cc1 [INDOMETHACIN]            21.4
12  CN(C)CCC=C1c2ccccc2CCc2ccccc21 [AMITRIPTYLINE]            21.3
13  COc1ccc(Cc2nccc3cc(OC)c(OC)cc23)cc1OC [PAPAVERINE]              21
14  O=C(O)c1cc(/N=N/c2ccc(S(=O)(=O)Nc3ccccn3)cc2)ccc1O [SULFASALAZINE]              22

###

Measured MCV by item
- Species: Rattus norvegicus
- Experiment description: Open TG-GATES - Regimen: Daily Repeat
- Assay type: toxicity, organism-based, Sprague-Dawley
- Parameters: regimen Daily Repeat, gender Male, age 6 weeks
- Recorded conditions: in vivo, po, 0 mg/kg, […], tissue Blood, route gavage, dose level Control, time 7 day
Measurement name: MCV (fL)

Molecule	Unit info	Endpoint value
NC(=O)N/N=C/c1ccc([N+](=O)[O-])o1	fL	62.8
Clc1ccccc1CN1CCc2sccc2C1	fL	58.5
Cn1c(=O)c2[nH]cnc2n(C)c1=O.O	fL	61.2
COc1ccc2c(c1)c(CC(=O)O)c(C)n2C(=O)c1ccc(Cl)cc1	fL	62.8
O=C(O)c1cc(/N=N/c2ccc(S(=O)(=O)Nc3ccccn3)cc2)ccc1O	fL	62.8
CN(C)CCC=C1c2ccccc2CCc2ccccc21	fL	62.8
CC(=O)Oc1ccccc1C(=O)O	fL	62.1
CO[C@H]1/C=C/O[C@@]2(C)Oc3c(C)c(O)c4c(O)c(c(/C=N/N5CCN(C)CC5)c(O)c4c3C2=O)NC(=O)/C(C)=C\C=C\[C@H](C)[C@H](O)[C@@H](C)[C@@H](O)[C@@H](C)[C@H](OC(C)=O)[C@@H]1C	fL	63.2
CCCC(CCC)C(=O)O	fL	61.9

###

- Species: Rattus norvegicus
- Experiment description: Open TG-GATES - Regimen: Single
- Type: toxicity, organism-based, Sprague-Dawley
- Design: regimen Single, gender Male, age 6 weeks
- Recorded conditions: in vivo, po, 100 mg/kg, 24 h, tissue Blood, route gavage, dose level Low
Measurement name: MCV (fL)

> print(dat)
                                   molecule  endpoint.value
1          CCc1cc(C(N)=S)ccn1 [ETHIONAMIDE]            63.8
2  O=C(O)c1cc(/N=N/c2ccc(S(=O)(=O)Nc3ccccn3)cc2)ccc1O [SULFASALAZINE]            61.8
3    Clc1ccccc1CN1CCc2sccc2C1 [TICLOPIDINE]            61.3
4  O=C(O)c1cn(C2CC2)c2cc(N3CCNCC3)c(F)cc2c1=O [CIPROFLOXACIN]            66.3
5  C[C@H](CS)C(=O)N1CCC[C@H]1C(=O)O [CAPTOPRIL]            63.6

###

- Species: Rattus norvegicus
- Experiment description: Open TG-GATES - Regimen: Single
- Type: toxicity, organism-based, Sprague-Dawley
- Set-up: regimen Single, gender Male, age 6 weeks
- Recorded conditions: in vivo, po, 1000 mg/kg, 24 h, tissue Liver, route gavage, dose level High
Threshold-based label: LIVER under 10 g gives Criterion met, LIVER not under 10 g gives Criterion not met.

> print(dat)
                                   molecule  qualitative.label
1  O=C(O)c1cn(C2CC2)c2cc(N3CCNCC3)c(F)cc2c1=O [CIPROFLOXACIN]      Criterion met
2    Clc1ccccc1CN1CCc2sccc2C1 [TICLOPIDINE]      Criterion met
3  C[C@H](CS)C(=O)N1CCC[C@H]1C(=O)O [CAPTOPRIL]  Criterion not met
4  O=C(O)c1cc(/N=N/c2ccc(S(=O)(=O)Nc3ccccn3)cc2)ccc1O [SULFASALAZINE]      Criterion met

###

Recorded CRE, one value per entry.
- Species: Rattus norvegicus
- Experiment description: Open TG-GATES - Regimen: Single
- Assay type: toxicity, organism-based, Sprague-Dawley
- Set-up: regimen Single, gender Male, age 6 weeks
- Recorded conditions: in vivo, po, 300 mg/kg, 3 h, tissue Plasma, route gavage, dose level Middle
Measurement name: CRE

> print(dat)
                                   molecule  measurement.name  endpoint.value
1                  Clc1ccccc1CN1CCc2sccc2C1               CRE       0.4 mg/dL
2          C[C@H](CS)C(=O)N1CCC[C@H]1C(=O)O               CRE       0.4 mg/dL
3  O=C(O)c1cc(/N=N/c2ccc(S(=O)(=O)Nc3ccccn3)cc2)ccc1O               CRE       0.4 mg/dL
4          CCc1cc(C(N)=S)ccn1 [ETHIONAMIDE]               CRE       0.6 mg/dL
5  O=C(O)c1cn(C2CC2)c2cc(N3CCNCC3)c(F)cc2c1=O               CRE       0.5 mg/dL
